target_of_assay: AKT1 WT (Homo sapiens, UniProt P31749)
Construct: expressed in transfected cells; host or cells: HEK293
Sequence (P31749 whole entry): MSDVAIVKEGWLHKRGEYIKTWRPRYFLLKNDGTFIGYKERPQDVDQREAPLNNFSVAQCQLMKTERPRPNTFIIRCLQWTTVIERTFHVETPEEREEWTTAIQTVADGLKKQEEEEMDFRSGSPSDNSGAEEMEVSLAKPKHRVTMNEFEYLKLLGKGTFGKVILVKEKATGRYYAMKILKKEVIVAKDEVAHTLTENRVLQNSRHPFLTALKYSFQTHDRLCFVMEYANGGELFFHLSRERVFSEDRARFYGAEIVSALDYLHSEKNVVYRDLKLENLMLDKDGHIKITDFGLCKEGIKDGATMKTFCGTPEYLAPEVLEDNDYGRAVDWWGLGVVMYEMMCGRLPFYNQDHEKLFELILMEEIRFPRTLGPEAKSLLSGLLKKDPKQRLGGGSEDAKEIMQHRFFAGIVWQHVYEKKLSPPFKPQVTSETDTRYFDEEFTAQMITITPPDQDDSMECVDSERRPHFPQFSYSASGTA
assay_notes: Live cell AKT1 WT target engagement by NanoBRET competitive probe displacement in HEK293 cells
Assay type: binding
settings: NanoBRET live cell target engagement, HEK293 cells, 2 h at 37° C.; read-out: AKT1 WT IC50
This section presents compounds with their documented IC50 values.
I only need the number, in nM, no unit after it.

Worked examples, 3 compounds total:
- compound: "CC(=O)N1CCC(N[C@H]2CCc3cc(-n4c(-c5cccnc5N)nc5ccc(-n6cccn6)nc54)ccc32)CC1"
  target_of_assay: "AKT1 WT (Homo sapiens, UniProt P31749)"
  attribute_measured: "IC50"
  unit_label: "nM"
  readout_value: 257
- compound: "Nc1ncccc1-c1nc2ccc(-n3cccn3)nc2n1-c1ccc2c(c1)CC[C@@H]2NC1CCS(=O)(=O)CC1"
  target_of_assay: "AKT1 WT (Homo sapiens, UniProt P31749)"
  attribute_measured: "IC50"
  unit_label: "nM"
  readout_value: 459
- compound: "Nc1ncccc1-c1nc2ccc(-n3cccn3)nc2n1-c1ccc2c(c1)CC(F)[C@@H]2NC1CN(c2ccccn2)C1 (stereo partly shown)"
  target_of_assay: "AKT1 WT (Homo sapiens, UniProt P31749)"
  attribute_measured: "IC50"
  unit_label: "nM"
  readout_value: 32.4

Switching to the query record.
query: GET /values?readout=IC50&system=AKT1 WT (Homo sapiens, UniProt P31749)&item= "CCc1coc(C(=O)N[C@H]2CCc3cc(-n4c(-c5cccnc5N)nc5ccc(-n6cccn6)nc54)ccc32)n1"
result: 23.4

* * *

target_of_assay: AKT1 E17K (Homo sapiens, UniProt P31749, E17K)
Construct: expressed in transfected cells; host or cells: HEK293
Sequence (P31749 whole entry E17K): as the sequence (P31749 whole entry) above, with E17K counted along it
assay_notes: Live cell AKT1 E17K target engagement by NanoBRET competitive probe displacement in HEK293 cells
Assay type: binding
settings: NanoBRET live cell target engagement, HEK293 cells, 2 h at 37° C.
This section presents compounds with their documented pIC50 values.
# pIC50 is unitless: minus log10 of the molar concentration; print number only

- compound_structure_string: "Cc1ncc(F)cc1C(=O)N[C@H]1CCc2cc(-n3c(-c4cccnc4N)nc4ccc(-n5nccn5)nc43)ccc21"
  target_of_assay: "AKT1 E17K (Homo sapiens, UniProt P31749, E17K)"
  pIC50: 7.03
- compound_structure_string: "COc1cc(C(=O)N[C@H]2CCc3cc(-n4c(-c5cccnc5N)nc5ccc(-n6cccn6)nc54)ccc32)ccn1"
  target_of_assay: "AKT1 E17K (Homo sapiens, UniProt P31749, E17K)"
  pIC50: 8.13

query: What value of measured pIC50 is listed for "CCc1cn([C@H]2CCc3cc(-n4c(-c5cccnc5N)nc5ccc(-n6cccn6)nc54)ccc32)nn1" ?
result: 7.40

query: Quick one: "N#Cc1ccc(C(=O)N[C@H]2CCc3cc(-n4c(-c5cccnc5N)nc5ccc(-n6cccn6)nc54)ccc32)cc1"
result: 7.52

* * *

target_of_assay: AKT2 (Homo sapiens, UniProt P31751)
Construct: expressed in transfected cells; host or cells: HEK293
Sequence (P31751 whole entry): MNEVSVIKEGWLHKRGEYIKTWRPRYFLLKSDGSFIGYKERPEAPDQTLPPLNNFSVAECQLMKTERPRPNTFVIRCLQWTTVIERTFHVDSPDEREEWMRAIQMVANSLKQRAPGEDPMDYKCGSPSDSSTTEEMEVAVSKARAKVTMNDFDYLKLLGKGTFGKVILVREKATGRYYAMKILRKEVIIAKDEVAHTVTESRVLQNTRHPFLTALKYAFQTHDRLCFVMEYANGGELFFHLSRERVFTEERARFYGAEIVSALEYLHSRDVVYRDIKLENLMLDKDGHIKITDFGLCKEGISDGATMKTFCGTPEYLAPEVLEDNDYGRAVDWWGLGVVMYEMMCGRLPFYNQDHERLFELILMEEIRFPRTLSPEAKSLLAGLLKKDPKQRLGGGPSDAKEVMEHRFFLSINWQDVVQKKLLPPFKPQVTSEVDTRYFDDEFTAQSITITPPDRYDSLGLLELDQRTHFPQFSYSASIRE
assay_notes: Live cell AKT2 target engagement by NanoBRET competitive probe displacement in HEK293 cells
Format: binding
settings: NanoBRET live cell target engagement, HEK293 cells, 2 h at 37° C.; read-out: AKT2 IC50
attribute_measured: IC50 (nM)
I only need the number, in nM, no unit after it.

- compound_structure_string: "Cc1cnc(C)c(C(=O)N[C@H]2CCc3cc(-n4c(-c5cccnc5N)nc5ccc(-n6cccn6)nc54)ccc32)c1"
  target_of_assay: "AKT2 (Homo sapiens, UniProt P31751)"
  IC50, nM: 174
- compound_structure_string: "Nc1ncccc1-c1nc2ccc(-n3cccn3)nc2n1-c1ccc2c(c1)CC[C@@H]2NC(=O)c1ccc(C(F)F)cc1"
  target_of_assay: "AKT2 (Homo sapiens, UniProt P31751)"
  IC50, nM: 49.7
- compound_structure_string: "Nc1ncccc1-c1nc2ccc(-n3cccn3)nc2n1-c1ccc2c(c1)CC[C@@H]2NC(=O)c1ccc2[nH]nnc2c1"
  target_of_assay: "AKT2 (Homo sapiens, UniProt P31751)"
  IC50, nM: 122
- compound_structure_string: "Cn1ccc(C(=O)N[C@H]2CCc3cc(-n4c(-c5cccnc5N)nc5ccc(-n6cccn6)nc54)ccc32)n1"
  target_of_assay: "AKT2 (Homo sapiens, UniProt P31751)"
  IC50, nM: 1270
- compound_structure_string: "Nc1ncccc1-c1nc2ccc(-n3cccn3)nc2n1-c1ccc2c(c1)CC[C@@H]2NCc1ccncc1"
  target_of_assay: "AKT2 (Homo sapiens, UniProt P31751)"
  IC50, nM: 886

Switching to the query record.
query: GET /values?readout=IC50&system=AKT2 (Homo sapiens, UniProt P31751)&item= "Cc1cc(C(=O)N[C@H]2CCc3cc(-n4c(-c5cccnc5N)nc5ccc(-n6cccn6)nc54)ccc32)n[nH]1"
result: 295

* * *

target_of_assay: AKT1 WT (Homo sapiens, UniProt P31749)
Construct: expressed in transfected cells; host or cells: HEK293
assay_notes: Live cell AKT1 WT target engagement by NanoBRET competitive probe displacement in HEK293 cells
Format: binding
settings: NanoBRET live cell target engagement, HEK293 cells, 2 h at 37° C.; read-out: AKT1 WT IC50
Values of IC50 strictly less than 10 nM map to 1, and values of at least 10 nM map to 0.

Consider the following illustrative entries.
- compound_structure_string: "Nc1ncccc1-c1nc2ccc(-n3cccn3)nc2n1-c1ccc2c(c1)CC[C@@H]2NC(=O)[C@H]1CCO1"
  target_of_assay: "AKT1 WT (Homo sapiens, UniProt P31749)"
  cat: 0
- compound_structure_string: "Cc1ncccc1C(=O)N[C@H]1CCc2cc(-n3c(-c4cccnc4N)nc4ccc(C5CC5)nc43)ccc21"
  target_of_assay: "AKT1 WT (Homo sapiens, UniProt P31749)"
  cat: 0
- compound_structure_string: "CNC(=O)c1ccc(C(=O)N[C@H]2CCc3cc(-n4c(-c5cccnc5N)nc5ccc(-n6cccn6)nc54)ccc32)cc1"
  target_of_assay: "AKT1 WT (Homo sapiens, UniProt P31749)"
  cat: 1
- compound_structure_string: "Cn1c(C(=O)N[C@H]2CCc3cc(-n4c(-c5cccnc5N)nc5ccc(-n6cccn6)nc54)ccc32)cc2ccccc2c1=O"
  target_of_assay: "AKT1 WT (Homo sapiens, UniProt P31749)"
  cat: 1
- compound_structure_string: "Nc1ncccc1-c1nc2ccc(-n3cccn3)nc2n1-c1ccc2c(c1)CC[C@@H]2NC(=O)c1ccncc1"
  target_of_assay: "AKT1 WT (Homo sapiens, UniProt P31749)"
  cat: 0
- compound_structure_string: "Nc1ncccc1-c1nc2ccc(-n3nccn3)nc2n1-c1ccc2c(c1)CC[C@@H]2NC(=O)c1cccnc1C(F)F"
  target_of_assay: "AKT1 WT (Homo sapiens, UniProt P31749)"
  cat: 0

query: Just wondering, is IC50 of "COc1cc(C(=O)N[C@H]2CCc3cc(-n4c(-c5cccnc5N)nc5ccc(-n6cccn6)nc54)ccc32)ccn1" below 10 nM?
result: 1

* * *

target_of_assay: AKT2 (Homo sapiens, UniProt P31751)
Construct: expressed in transfected cells; host or cells: HEK293
assay_notes: Live cell AKT2 target engagement by NanoBRET competitive probe displacement in HEK293 cells
Type: binding
settings: NanoBRET live cell target engagement, HEK293 cells, 2 h at 37° C.; read-out: AKT2 IC50
attribute_measured: IC50 (nM)
I only need the number, in nM, no unit after it.

- molecule: "Nc1ncccc1-c1nc2ccc(-n3cccn3)nc2n1-c1ccc2c(c1)CC[C@@H]2NC1CCN(C(=O)c2ccccn2)CC1 [Compound 358]"
  unit_label: "nM"
  readout_value: 4640

query: What value of measured IC50 is listed for Nc1ncccc1-c1nc2ccc(-n3cccn3)nc2n1-c1ccc2c(c1)CC[C@@H]2NC(=O)c1cnc(C(F)F)cn1 [Compound 322] ?
result: 1330

query: Quick one: Nc1ncccc1-c1nc2ccc(-n3cccn3)nc2n1-c1ccc2c(c1)CC[C@@H]2NC(=O)c1ccc(N2CCOCC2)nc1 [Compound 95]
result: 9.41

query: Quick one: Cc1ccc(C(=O)N[C@H]2CCc3cc(-n4c(-c5cccnc5N)nc5ccc(-n6ccc(F)n6)nc54)ccc32)cn1 [Compound 52]
result: 128

query: Quick one: Nc1ncccc1-c1nc2ccc(-n3cccn3)nc2n1-c1ccc2c(c1)CC[C@@H]2NC(=O)c1ccc(Cl)nc1 [Compound 45]
result: 139

query: Quick one: Cc1ncncc1C(=O)N[C@H]1CCc2cc(-n3c(-c4cccnc4N)nc4ccc(-n5cccn5)nc43)ccc21 [Compound 117]
result: 103
